property.name: melting point

Lab note: COc1ccc(Cc2sc3ccccc3c2-c2ccc(-c3ccc(OC(Cc4ccccc4)C(=O)O)cc3)cc2)c(OC)c1 (centres undefined) gave melting point of 70 to 72 °C

Per the records, this compound ( C[C@@H]1C[C@@H]([C@H](CC2CCCCC2)NC(=O)OC(C)(C)C)OC1=O ) has melting point equal to 80 to 82 °C

Sample COC[C@@H]1CC(c2ccc(-c3ccc(N4C[C@H](Cn5ccnn5)OC4=O)cc3F)cn2)=NO1 ; melting point observed: 161 °C

Recorded melting point (compound CCOC(=O)c1cc(NCc2ccccc2)c(N2CCOCC2)c(S(N)(=O)=O)c1 ): 185 to 186 °C

Query CCc1[nH]n(C2CCCC2)c2nc(Cc3cccn3C)nc(=O)c1-2 yields melting point of 214 to 216 °C

What the record says about COc1cc(NC(=O)OC(C)(C)C)cc2c1nc(C(F)F)n2-c1nc(N2CCOCC2)nc(N2CCN(S(=O)(=O)CCN(C)C)CC2)n1 : melting point is 200 to 202 °C

Per the record, O=C(NN=c1[nH]nc(Cl)c2ccccc12)c1ccccc1 has melting point of 162 °C

What the record says about CC1(C)C(C=C(F)C(=O)OCC(F)(F)F)C1C(=O)OC(C#N)c1ccc(F)c(Oc2ccccc2)c1 (centres undefined) : melting point is 85 °C

Sure, the documented melting point for CC(=O)Nc1cccc2c1CC(=O)CC2 is 203 to 205 °C

###

Give measured melting point for each item. Keep answers brief.

// field: melting point; key: COC(=O)C(C)(SC)c1ccc(C(OC)(OC)c2ccccc2)s1 (centres undefined) ; value = 61.5 to 62.5 °C

Entry under test: CCOC(=O)C(C)c1ccc2cc(O)ccc2c1 (centres undefined) . Its melting point was 93 to 98 °C

For record COC(=O)CNS(=O)(=O)c1ccc(N2CCC(NC[C@H](O)c3ccc(O)c(NS(C)(=O)=O)c3)CC2)cc1 the listed melting point is 123 to 125 °C

Measured melting point of CCOC(=O)CNC(=O)COc1c(F)cc(CSCCNS(=O)(=O)c2ccc(Cl)cc2)cc1F : 88.5 to 89.5 °C

Record CS(=O)(=O)c1ccc(-n2nc(C(=O)O)cc2-c2ccc(-c3ccco3)cc2)cc1F , field melting point: 172 to 173 °C

For Cc1cc(C)cc(OCC(O)CNc2nc(-c3ccccc3)nc3ccccc23)c1 (centres undefined) the compound record lists melting point as 170 to 172 °C

Lab book: melting point of O=Cc1ccc2c(c1)C1(c3ccccc3-2)c2ccccc2-c2ccc(CO)cc21 (centres undefined) noted as 262 to 263 °C

Query CCOC[C@H]1CN(c2ccc(OCc3ccccc3)cc2)C(=O)O1 yields melting point of 92 °C

Documented melting point of CC(=O)OCC1OC(n2cc(C)c(=O)[nH]c2=O)CC1N=[N+]=[N-] (centres undefined) : 96 to 98 °C

###

Consider the following compounds; for each one, report its melting point.

// melting point value for C=Cc1c(NCc2ccco2)nc(C2CC2)nc1C(=O)OC : 85 to 86 °C

The recorded melting point for entry O=C(Nc1cccc(Cl)c1)c1nc(-c2ccccc2)c2ccccc2c1O equals 195 to 197 °C

Entry CCC1(O)CC(=O)OCc2c1cc1n(c2=O)Cc2c-1nc1ccccc1c2CC[Si](C)(C)C (stereo unspecified) ; melting point = > 250 °C

What the record says about Cc1cc(O)n(C2CCCCC2)n1 : melting point is 153 °C

get_value(item= O=C(O)c1ccc(CN([C@@H](CO)c2ccccc2)S(=O)(=O)c2ccc(Cl)cc2)cc1 , readout=melting point) returns 85 to 87 °C

For this compound ( CN1CN(C)C(=N[N+](=O)[O-])N(Cc2cnc(Cl)s2)C1 ), measured melting point is 125 to 126 °C

Value of melting point reported for the compound C=C(CNc1ccc2ncnc(Nc3cccc(Br)c3)c2c1)C(=O)OC is 157 to 162 °C

Lookup result for CC(C)(C)C(COC(N)=O)(NC(=O)c1ccccc1)c1c[nH]c2ccc(Br)cc12 (stereo unspecified) ; measured melting point: 187 °C

Sample CSc1nccc(Oc2ccc(NC(=O)c3cc(F)cc(N4CCOCC4)c3)c3ccccc23)n1 ; melting point observed: 189 to 190 °C

Query COc1cc(-n2nc3n(c2=S)CCSC3)c(Cl)cc1Cl yields melting point of 131 to 135 °C

The compound listed as CCOC(=O)CC1CN=C(c2cc3cccc(N(C)S(=O)(=O)c4cccnc4)c3[nH]2)S1 (stereo unspecified) shows melting point equal to 146 to 147 °C

Field melting point (entry CC(C)n1c(=O)c(C(=O)NCC2CCN(CC3(O)CCOCC3)CC2)cc2c(Cl)cccc21 ) reads 227 °C

GET /value?item= CCOC(=O)C1=CC(=NO)CC(c2ccc(Cl)cc2F)N1 (stereo unspecified) &field=melting point returns 124 to 126 °C

GET /value?item= CC(Oc1ncn(-c2ccc(Br)cc2)n1)C(=O)N1CCCC1 (stereo unspecified) &field=melting point returns 144 to 145 °C

Summary for this compound, Oc1ccccc1CCC1NCCS1 (stereo unspecified) : melting point is 100 to 102 °C

The recorded melting point for entry CN(C)S(=O)(=O)c1cc(N=C=O)ccc1Cl equals 82 to 85 °C

CC1Cc2cc(N3C[C@H](CO)OC3=O)ccc2N1C(=O)OCc1ccccc1 (stereo partly specified) yielded melting point of 144 to 145 °C

Value of melting point reported for the compound COC(=O)COc1ccccc1C1C(C(=O)OC)=C(C)NC(C)=C1C(=O)OC is 153 to 155 °C

Lab note: measured melting point of Cc1c(-c2ccc(Cl)cc2Cl)nn(C)c1S(C)(=O)=O was 110 to 112 °C

Value of melting point reported for the compound COc1ccc(NS(=O)(=O)c2ccc(N3CCNC3=O)cc2)cc1OC is 215 to 216 °C

Recorded melting point (compound Cn1nc(-c2ccccc2)c(N)c1-c1ccccc1 ): 80 to 81 °C

// melting point value for CC(=O)N1CCc2cc(CC(C)NCCOc3ccccc3OCC(F)(F)F)cc(C#N)c21 (stereo unspecified) : 57 to 59 °C

Lab note: FC(F)(F)c1ccc(/C=C/c2nc(COc3ccc(CCCCn4ccnn4)cc3)co2)cc1 gave melting point of 160 to 161 °C

The compound identified as O=C(NC1CCCc2ccccc21)c1ccc2cnccc2n1 (stereo unspecified) registered its melting point at 164 to 165 °C

For COc1ccc2c(c1)cc(C=O)n2C the compound record lists melting point as 88 to 90 °C

// recorded melting point for CCCOc1ccc(-c2ccc(OCC(CN3C(=O)NC(C)(C)C3=O)N(O)C=O)cc2)cc1 (stereo unspecified) : 158 to 160 °C

For reference, reported melting point for CCOC(=O)COc1ccc(Cc2ccc(O)cc2)c(Cl)c1Cl stands at 102 to 103 °C

melting point measured on Brc1ccc(-c2nnnn2Cc2ccccc2)s1 = 196 to 197 °C

Measured melting point, Cc1oc(-c2ccccc2)nc1CCOc1ccc(CC(Nc2ccccc2C(=O)c2cccc(CO)c2)C(=O)O)cc1 (stereo unspecified) : 87 to 90 °C

For record Cc1cc(Cn2nnc(C(N)=O)c2N)ccc1C(=O)c1ccccc1 the listed melting point is 181 to 182 °C

According to the records, this compound C=Cc1ccc(CNc2ccccn2)c(Cl)c1 displays melting point of 119 to 121 °C

// recorded melting point for Cc1ccc(Cn2[nH]c(N)cc2=O)cc1C(F)(F)F : 103 °C

# melting point of COc1ccc2oc(-c3nc4c(s3)NCCCC4C(C)=O)cc2c1 (stereo unspecified) = 147 to 149 °C

So for CCNc1nc(-c2ccc(NC(=O)NCc3ccc(N)nc3)cc2)ccc1C(=O)NC , the logged melting point turned out to be 223 to 226 °C

Short answer for CS(=O)(=O)c1c(Cl)nc(Cl)nc1Cl : melting point was 146 to 147 °C

Notebook: Cc1c(C2CCC(c3ccccc3)(N(C)C)CC2)n(CC(O)CN(C)C)c2ccccc12 (stereo unspecified) , melting point read as 54 to 57 °C

So, Nc1nc2ccccc2c2c1nc(CO)n2Cc1cc(-c2ccc(F)cc2)no1 ? Its melting point was 262 to 263 °C

melting point for CCOCc1nc2c(N)nc3cc(O)ccc3c2n1CC(C)(C)NS(C)(=O)=O is 255 to 256 °C

melting point in this record for CCCCCCOc1ccc(-c2cc(C=O)ccc2C=O)cc1 : 44.5 to 45.5 °C

Sure, the documented melting point for COC(=O)NNC(=S)CC1CCCCO1 (stereo unspecified) is 110 °C

Record COc1ccc(CN(C(=O)C(F)(F)F)c2cc(F)cc(C#N)c2)cc1 . Reported melting point: 102 to 103 °C
